subject of test: GRIP2_3, Q9C0E4
Sequence (Q9C0E4 238-339): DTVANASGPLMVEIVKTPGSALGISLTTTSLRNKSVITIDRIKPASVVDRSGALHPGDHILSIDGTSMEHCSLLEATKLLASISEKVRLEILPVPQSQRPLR
method summary: holdup assay
Design: key: below the threshold = too weak to quantify, mostly under pKd 3.1 to 4
condition set: plain residues with an end cap or a label only (N-terminal biotin on a linker: ado-ado)
measured attribute: pKd

* MHIQEKGFHV [EPHA6, Q9UF33] | below the threshold
* NTLNRKTTPV [CACNG8, Q8WXS5] | below the threshold
* SVTSERETNI [SLC16A7, O60669] | below the threshold
* STKRKLASAV [NCF1, P14598] | below the threshold

get_value(item= RSSGGDDFWF [KCNV1, Q6PIU1] , readout=pKd) returns below the threshold

get_value(item= GTGYDRKDYV [CLDN3, O15551] , readout=pKd) returns below the threshold

get_value(item= MQHQRTHTRV [ZSCAN30, Q86W11] , readout=pKd) returns below the threshold

get_value(item= TISFTQTSQF [SLC1A1, P43005] , readout=pKd) returns below the threshold
